Here is a set of molecules with reported pIC50 for UniProt:P56524, compiled from the literature.
Value format note: pIC50 is -log10 of concentration (mol/L); just state the number.

Some molecules with known pIC50 results, for comparison:
Prompt: Quote pIC50 reported for COc1cc(/C=C/C(=O)c2ccc(OCCCCC(=O)NO)cc2)cc(OC)c1OC please.
Response: 5.17

Prompt: Using known records, supply pIC50 for Cc1ccc(-n2c(SCc3ccc(C(=O)NO)cc3)nc3ccccc3c2=O)cc1C
Response: 5.80

Prompt: Give a short answer stating reported pIC50 for CN(C)c1ccc(C=NNc2nc3ccccc3nc2Cl)cc1 .
Response: 5.55

Prompt: Give a short answer stating reported pIC50 for COc1ccc(C=NNc2nc3ccccc3nc2Cl)cc1OC .
Response: 5.79

Prompt: Specify measured pIC50 for O=C(NO)c1ccc(CSc2nc3cc(Cl)ccc3c(=O)n2-c2ccccc2F)cc1 .
Response: 6.25

***
Prompt: Fill in reported pIC50 for this entry: Oc1ccccc1C=NNc1nc2ccccc2nc1Cl
Response: 5.42

Prompt: Look up and report measured pIC50 for this entry: CCn1c(N)c(C(c2ccc([N+](=O)[O-])cc2)c2c(N)n(CC)c(=S)[nH]c2=O)c(=O)[nH]c1=S
Response: 4.91

Prompt: Tell me measured pIC50 for O=C(/C=C/c1cccc(S(=O)(=O)c2ccc3ccccc3n2)c1)NO please.
Response: 4.71

Prompt: State, in one line, measured pIC50 of Cc1ccc(-n2c(SCc3ccc(C(=O)NO)cc3)nc3ccccc3c2=O)cc1
Response: 6.14

Prompt: Item O=C(NO)c1ccc(CSc2nc3ccccc3c(=O)n2-c2ccc(Cl)cc2)cc1 : provide pIC50
Response: 5.35
